Source listed as patent US12415794B2.

TARGET_SYSTEM: cardiac myofibrils (myosin ATPase)
Construct: frozen myofibril pellets obtained from cardiac tissue; from tissue
Sequence (P12883 whole entry): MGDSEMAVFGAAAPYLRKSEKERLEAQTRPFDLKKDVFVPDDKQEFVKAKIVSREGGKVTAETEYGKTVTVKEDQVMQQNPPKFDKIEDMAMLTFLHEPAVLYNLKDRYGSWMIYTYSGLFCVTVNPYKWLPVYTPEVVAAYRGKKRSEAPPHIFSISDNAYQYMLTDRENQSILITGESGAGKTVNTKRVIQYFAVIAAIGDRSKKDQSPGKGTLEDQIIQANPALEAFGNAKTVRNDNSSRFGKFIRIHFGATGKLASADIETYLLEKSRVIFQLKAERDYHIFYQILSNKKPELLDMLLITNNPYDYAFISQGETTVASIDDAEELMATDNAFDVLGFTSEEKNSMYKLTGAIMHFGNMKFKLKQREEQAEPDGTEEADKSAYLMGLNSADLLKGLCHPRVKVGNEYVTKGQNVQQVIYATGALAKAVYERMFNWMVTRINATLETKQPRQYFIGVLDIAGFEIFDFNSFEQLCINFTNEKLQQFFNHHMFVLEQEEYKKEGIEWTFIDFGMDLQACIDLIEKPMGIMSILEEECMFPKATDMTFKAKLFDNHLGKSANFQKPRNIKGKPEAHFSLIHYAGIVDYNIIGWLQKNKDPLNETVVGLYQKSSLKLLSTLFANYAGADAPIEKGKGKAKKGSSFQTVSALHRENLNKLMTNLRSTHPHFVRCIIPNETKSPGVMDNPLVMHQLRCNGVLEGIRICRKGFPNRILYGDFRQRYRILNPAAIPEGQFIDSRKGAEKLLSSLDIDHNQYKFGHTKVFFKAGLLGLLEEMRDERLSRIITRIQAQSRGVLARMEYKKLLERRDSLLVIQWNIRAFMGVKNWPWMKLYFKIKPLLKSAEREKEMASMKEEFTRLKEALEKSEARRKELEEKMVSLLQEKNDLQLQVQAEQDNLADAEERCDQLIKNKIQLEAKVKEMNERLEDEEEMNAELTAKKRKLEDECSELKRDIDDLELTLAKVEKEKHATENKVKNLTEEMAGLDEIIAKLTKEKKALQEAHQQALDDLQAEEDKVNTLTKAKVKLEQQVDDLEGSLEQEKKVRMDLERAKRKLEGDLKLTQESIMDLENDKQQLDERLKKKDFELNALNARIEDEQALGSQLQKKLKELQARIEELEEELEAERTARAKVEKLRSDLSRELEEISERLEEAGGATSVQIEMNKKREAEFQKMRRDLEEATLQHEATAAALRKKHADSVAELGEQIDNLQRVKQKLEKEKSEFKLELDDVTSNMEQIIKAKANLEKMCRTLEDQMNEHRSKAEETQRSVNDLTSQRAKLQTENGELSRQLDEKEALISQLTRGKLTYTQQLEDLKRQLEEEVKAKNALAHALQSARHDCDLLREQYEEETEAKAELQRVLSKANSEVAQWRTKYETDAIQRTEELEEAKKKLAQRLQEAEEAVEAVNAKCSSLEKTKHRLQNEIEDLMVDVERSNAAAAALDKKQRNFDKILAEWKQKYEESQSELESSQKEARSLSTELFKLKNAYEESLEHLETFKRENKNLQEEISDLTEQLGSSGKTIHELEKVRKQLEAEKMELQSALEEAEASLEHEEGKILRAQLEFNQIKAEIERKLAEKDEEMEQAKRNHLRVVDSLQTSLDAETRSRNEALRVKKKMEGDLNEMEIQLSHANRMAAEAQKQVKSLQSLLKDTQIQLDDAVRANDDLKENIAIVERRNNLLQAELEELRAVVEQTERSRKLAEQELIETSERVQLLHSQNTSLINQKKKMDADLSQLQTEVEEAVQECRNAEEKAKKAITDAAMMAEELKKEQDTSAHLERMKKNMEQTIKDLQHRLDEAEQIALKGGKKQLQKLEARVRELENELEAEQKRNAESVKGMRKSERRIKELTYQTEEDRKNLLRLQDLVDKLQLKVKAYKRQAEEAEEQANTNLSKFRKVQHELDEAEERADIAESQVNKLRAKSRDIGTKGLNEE
Sequence (P08590 whole entry partner): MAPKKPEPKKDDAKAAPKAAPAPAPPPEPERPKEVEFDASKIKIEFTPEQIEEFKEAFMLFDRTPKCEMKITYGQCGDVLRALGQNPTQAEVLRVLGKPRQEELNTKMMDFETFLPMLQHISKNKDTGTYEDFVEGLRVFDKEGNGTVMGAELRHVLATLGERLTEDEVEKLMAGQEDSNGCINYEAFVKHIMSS
Sequence (P10916 whole entry partner): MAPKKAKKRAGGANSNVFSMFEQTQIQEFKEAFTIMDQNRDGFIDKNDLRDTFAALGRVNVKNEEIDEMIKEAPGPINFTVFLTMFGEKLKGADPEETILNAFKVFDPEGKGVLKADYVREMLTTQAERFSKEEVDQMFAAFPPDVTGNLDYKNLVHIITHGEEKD
MEASUREMENT_PROTOCOL: Cardiac Myofibril ATPase Assay (counter screen)
Type: biochemical
CONDITION: myofibrils 1.0 mg/mL, KCl omitted, Table 5C
pIC50: −log10 of the molar value.
MEASURE_NAME: pIC50

| COMPOUND | pIC50 |
| --- | --- |
| COc1ccc(-c2ccc(=O)n(CC(=O)Nc3cccc(C)n3)n2)cc1 | < 4.00 |
| COc1ccc(-c2ccc(=O)n(CC(=O)NCc3ccco3)n2)cc1 [IIIb-37] | < 4.00 |
| COc1ccc(-c2ccc(=O)n(CC(=O)Nc3cccc(Cl)c3)n2)cc1 | < 4.00 |

QUERY: # input compound: `COc1ccc(-c2ccc(=O)n(CC(=O)NCc3ccccc3C)n2)cc1` ; wanted: its pIC50
RESULT: < 4.00

QUERY: Name the reported pIC50 value associated with the compound `Cc1ccc(-c2ccc(=O)n(CC(=O)NCCc3ccccc3)n2)cc1`
RESULT: < 4.00

QUERY: Find the recorded pIC50 belonging to `O=C(Cn1nc(-c2ccccc2)ccc1=O)Nc1ccc2[nH]ccc2c1` and report it.
RESULT: < 4.00

QUERY: Give the measured pIC50 of `O=C(Cn1nc(-c2ccc(F)cc2)ccc1=O)N1CCCC1` .
RESULT: < 4.00

QUERY: Give its pIC50 value. Item: `O=C(Cn1nc(-c2ccc(Cl)cc2)ccc1=O)NCc1cccc(Cl)c1`
RESULT: < 4.00

QUERY: Dear colleague, I am looking for the recorded pIC50 of the following compound: `O=C(Cn1nc(-c2ccccc2)ccc1=O)NCc1ccccc1Cl`
RESULT: < 4.00

QUERY: Given the compound `COc1ccc(-c2ccc(=O)n(CC(=O)NCc3ccc(F)cc3)n2)cc1` , what is its reported pIC50?
RESULT: < 4.00

QUERY: For the compound shown here, `COc1ccc(-c2ccc(=O)n(CC(=O)NCc3ccccc3Cl)n2)c(C)c1` , give the reported pIC50.
RESULT: < 4.00

QUERY: Find the recorded pIC50 belonging to `CC(C)CNC(=O)Cn1nc(-c2ccc(Cl)cc2)ccc1=O` and report it.
RESULT: < 4.00

QUERY: Endpoint output: pIC50 of `Cc1ccc(-c2ccc(=O)n(CC(=O)NC3CCCC3)n2)cc1` . Value?
RESULT: < 4.00

QUERY: Looking for the measured pIC50 of `C[C@@H](NC(=O)Cn1nc(-c2ccc3c(c2)OCCCO3)ccc1=O)c1ccc(F)cc1` , can you help?
RESULT: < 4.00

QUERY: Give the measured pIC50 of `COc1ccc(-c2ccc(=O)n(CC(=O)N(C)c3ccccc3)n2)cc1` .
RESULT: < 4.00

QUERY: Given `O=C(Cn1nc(-c2ccc(Cl)cc2)ccc1=O)Nc1ccccc1F` , state its recorded pIC50.
RESULT: < 4.00

QUERY: Record request: pIC50 value, item `COc1ccc(-c2ccc(=O)n(CC(=O)NC3CCCC3)n2)cc1OC`
RESULT: < 4.00

QUERY: Looking for the measured pIC50 of `CCOc1ccc(-c2ccc(=O)n(CCNC(=O)CC3CCCC3)n2)cc1` , can you help?
RESULT: < 4.00

QUERY: Field request: pIC50 | item: `O=C(Cn1nc(-c2ccccc2)ccc1=O)Nc1cccc2[nH]ccc12`
RESULT: < 4.00

QUERY: Item `Cc1cccnc1NC(=O)Cn1nc(-c2ccc(Cl)cc2)ccc1=O` has what recorded pIC50?
RESULT: < 4.00

* * *

Some compounds, each annotated with its measured pIC50.
TARGET_SYSTEM: skeletal myofibrils (myosin ATPase)
MEASUREMENT_PROTOCOL: Skeletal Myofibril ATPase Assay
Format: biochemical
CONDITION: Table 4B
pIC50: −log10 of the molar value.

// solved cases for pIC50 follow
| COMPOUND | TARGET_SYSTEM | pIC50 |
| --- | --- | --- |
| CCNC(=O)Cn1nc(-c2ccc(OCC(F)(F)F)cc2)ccc1=O | skeletal myofibrils (myosin ATPase) | > 5.00 |
| CCNC(=O)Cn1nc(-c2ccc(NC(C)=O)cc2)ccc1=O | skeletal myofibrils (myosin ATPase) | > 5.00 |
| CC(=O)Nc1ccc(-c2ccc(=O)n(CC(=O)NCc3ccccc3Cl)n2)cc1 | skeletal myofibrils (myosin ATPase) | > 5.00 |
| O=C(Cn1nc(-c2ccc(OCC(F)(F)F)cc2)ccc1=O)N1CCC1c1ccccc1 (centres unmarked) | skeletal myofibrils (myosin ATPase) | > 5.00 |

QUERY: Fill in: pIC50 of `CCNC(=O)Cn1nc(-c2ccc(OC(F)(F)F)cc2)ccc1=O` is ___
RESULT: > 5.00

* * *

TARGET_SYSTEM: skeletal myofibrils (myosin ATPase)
MEASUREMENT_PROTOCOL: Skeletal Myofibril ATPase Assay
Type: biochemical
CONDITION: Table 4C
MEASURE_NAME: IC50

// known answers, use as guide
| COMPOUND | TARGET_SYSTEM | MEASURE_NAME | RESULT |
| --- | --- | --- | --- |
| O=C(Cn1nc(-c2ccc(Cl)cc2)ccc1=O)Nc1ccccc1F | skeletal myofibrils (myosin ATPase) | IC50 | 10 to 100 µM |
| CCNC(=O)Cn1nc(-c2ccc(OC)cc2)ccc1=O | skeletal myofibrils (myosin ATPase) | IC50 | < 10 µM |
| COc1ccc(-c2ccc(=O)n(CC(=O)Nc3cc(Cl)ccc3Cl)n2)c(F)c1 | skeletal myofibrils (myosin ATPase) | IC50 | < 10 µM |
| COc1ccc(-c2ccc(=O)n(CC(=O)NCc3ccccc3F)n2)cc1 | skeletal myofibrils (myosin ATPase) | IC50 | > 100 µM |
| COc1ccc(-c2ccc(=O)n(CC(=O)NCc3ccccc3Cl)n2)c(F)c1 | skeletal myofibrils (myosin ATPase) | IC50 | < 10 µM |

QUERY: Could you share which IC50 value was measured for O=C(Cn1nc(-c2ccc3c(c2)OCCO3)ccc1=O)Nc1ccccc1F [IIIb-6] ?
RESULT: < 10 µM

QUERY: Please give the measured IC50 for this compound: `COc1ccc(-c2ccc(=O)n(CC(=O)NC(C)C)n2)cc1`
RESULT: 10 to 100 µM

QUERY: What value of IC50 has been recorded for this entry: `COc1ccc(-c2ccc(=O)n(CC(=O)NC3CC3)n2)c(F)c1`
RESULT: > 100 µM

QUERY: Can you look up the measured IC50 of `COc1ccc(-c2ccc(=O)n(CC(=O)NCc3ccc(F)cc3)n2)c(F)c1` for me?
RESULT: > 100 µM

QUERY: Please look up its IC50: `COc1ccc(-c2ccc(=O)n(CC(=O)NC3CCCC3)n2)cc1`
RESULT: 10 to 100 µM

QUERY: Form field: reported IC50 of `COc1ccc(-c2ccc(=O)n(CC(=O)NC3(c4ccccc4Cl)CC3)n2)cc1`
RESULT: 10 to 100 µM

QUERY: I am curious: what IC50 value has been reported for `COc1ccc(-c2ccc(=O)n(CC(=O)NCC3CCCCC3)n2)cc1` ?
RESULT: < 10 µM

QUERY: Can you look up the measured IC50 of `COc1ccc(CNC(=O)Cn2nc(-c3ccc(OC)cc3)ccc2=O)cc1` for me?
RESULT: 10 to 100 µM

QUERY: If you can, please state the reported IC50 value of `COc1ccc(-c2ccc(=O)n(CC(=O)Nc3ncccc3C)n2)cc1` .
RESULT: 10 to 100 µM

QUERY: Consider the compound shown here: `CC(C)NC(=O)Cn1nc(-c2ccccc2)ccc1=O` What is its recorded IC50?
RESULT: > 100 µM

QUERY: Value lookup for IC50; key = `COc1ccc(-c2ccc(=O)n(CC(=O)NCCc3ccccc3)n2)c(F)c1`
RESULT: < 10 µM

QUERY: May I ask what IC50 has been recorded for `COc1ccc(-c2ccc(=O)n(CC(=O)NC3CCCC3)n2)cc1OC` ?
RESULT: > 100 µM

QUERY: Reported IC50, compound `COc1ccc(-c2ccc(=O)n(CC(=O)Nc3cc(Cl)ccc3Cl)n2)cc1` : ____
RESULT: < 10 µM

QUERY: Given `COc1ccc(-c2ccc(=O)n(CC(=O)NCc3ccccc3Cl)n2)cc1C` , state its recorded IC50.
RESULT: 10 to 100 µM

QUERY: IC50 lookup needed for `O=C(Cn1nc(-c2ccccc2)ccc1=O)NC1CC1` , thanks.
RESULT: > 100 µM

* * *

TARGET_SYSTEM: skeletal myofibrils (myosin ATPase)
MEASUREMENT_PROTOCOL: Skeletal Myofibril ATPase Assay
Assay type: biochemical
CONDITION: Table 4B
MEASURE_NAME: IC50

Please review the following examples before continuing.
| SMILES_REPRESENTATION | TARGET_SYSTEM | MEASURE_NAME | RESULT |
| --- | --- | --- | --- |
| CC(=O)Nc1ccc(-c2ccc(=O)n(CC(=O)NC(C)C)n2)cc1 | skeletal myofibrils (myosin ATPase) | IC50 | 10 to 100 µM |
| O=C(Cn1nc(-c2ccc(OC(F)F)cc2)ccc1=O)NC1CCC1 | skeletal myofibrils (myosin ATPase) | IC50 | < 10 µM |
| CC(C)CNC(=O)Cn1nc(-c2ccc(OC(F)F)cc2)ccc1=O | skeletal myofibrils (myosin ATPase) | IC50 | 10 to 100 µM |
| O=C(Cn1nc(-c2ccc(OC(F)F)cc2)ccc1=O)NCC(F)(F)F | skeletal myofibrils (myosin ATPase) | IC50 | 10 to 100 µM |

Next compound, IC50 to be filled in.
QUERY: Notebook entry, skeletal myofibrils (myosin ATPase) assay: IC50 of `O=C(Cn1nc(-c2ccc(OC(F)F)cc2)ccc1=O)NCC1CCC1` = ?
RESULT: 10 to 100 µM
